experimental endpoint: melting point

These recorded examples may help you get a feel for the data.
- molecule: "CC1CC(=O)NN=C1c1ccc2c(c1)CCC1(CCN(C3CCC3)CC1)O2 (centres unmarked) [Example 12]"
  melting point: "207 to 209 °C"
- molecule: "O=c1ccc(-c2ccc3c(c2)CC2(CCN(C4CCC4)CC2)O3)n[nH]1 [Example 16]"
  melting point: "227 to 228 °C"
- molecule: "Cc1cc2c(cc1-c1ccc(=O)[nH]n1)COC1(CCN(C3CCC3)CC1)O2 [Example 29]"
  melting point: "230 to 232 °C"

Next molecule, melting point to be filled in.
Q) melting point for O=c1cc(-c2ccc3c(c2)CCC2(CCN(C4CCC4)CC2)O3)cn[nH]1 [Example 19] ?
A) 216 to 219 °C

###

Structures can show the parent of a compound that is named as a salt.
experimental endpoint: melting point

Examples with answers:
- compound: "CC1CC(=O)NN=C1c1ccc2c(c1)COC1(CCN(C3CCC3)CC1)O2 (centres unmarked) (as salt: HCl) [Example 39]"
  melting point: "209 to 214 °C"
- compound: "Cc1c(-c2ccc(=O)[nH]n2)ccc2c1COC1(CCN(C3CCC3)CC1)O2 (as salt: HCl) [Example 31]"
  melting point: "255 to 257 °C"
- compound: "O=c1cc(-c2ccc3c(c2)COC2(CCN(C4CCC4)CC2)O3)cn[nH]1 (as salt: HCl) [Example 26]"
  melting point: "258 to 262 °C"
- compound: "O=c1cccnn1CCCOc1ccc2c(c1)CCC1(CCN(C3CCC3)CC1)O2 (as salt: HCl) [Example 24]"
  melting point: "207 to 209 °C"

Q) Please report the recorded melting point for O=C1CCC(c2ccc3c(c2)COC2(CCN(C4CCC4)CC2)O3)=NN1 [Example 36] .
A) 192 to 194 °C

###

Where a name gives a salt, the structure may show the parent alone.
Let's look at some compounds and their measured melting point.

- compound: "Cc1cc(=O)[nH]nc1-c1ccc2c(c1)CC1(CCN(C3CCC3)CC1)O2"
  melting point: "243 to 245 °C"
- compound: "O=C1NN=C(c2ccc3c(c2)COC2(CCN(C4CCC4)CC2)O3)C2CC12 (stereo not shown) (as salt: HCl)"
  melting point: "> 300 °C"
- compound: "O=C1NN=C(c2ccc3c(c2)COC2(CCN(C4CCC4)CC2)O3)C2CCC12 (stereo not shown) (as salt: HCl)"
  melting point: "271 to 274 °C"

Now for another entry.
Q) May I ask what melting point has been recorded for Cc1c(-c2ccc3c(c2)COC2(CCN(C4CCC4)CC2)O3)n[nH]c(=O)c1C (as salt: HCl) ?
A) > 300 °C
